Below, each entry is listed alongside its reported Mortality, parent generation.
Test system: flies (family Muscidae)
Test: Oviposition inhibition tests (treated fly food; Examples 6-9)
Format: in vivo
Details: 0.5% in food
endpointLabel: Mortality, parent generation (%)

compound: CCCOc1cc2c(cc1C(C)c1ccccc1)OCO2 (centres unmarked)
valueMeasured: 0
//
compound: COc1cc2c(cc1C(C)c1ccccc1)OCO2 (centres unmarked)
valueMeasured: 42
//
compound: CC(c1ccccc1)c1cc(C(C)(C)C)c(O)c(C(C)(C)C)c1 (centres unmarked)
valueMeasured: 0
//
compound: COc1c(C)cc(Cc2ccc3c(c2)OCO3)cc1C
valueMeasured: 70
//
compound: CCOc1ccc(Cc2ccc3c(c2)OCO3)cc1C
valueMeasured: 80

----------
Form field: Survival, Female (one value per entry).
Test system: screwworm flies
Assay: Anti-procreant tests on screw-worm fly
Type: in vivo
Details: 0.10% in food

molecule: CCOc1cc2c(cc1Cc1ccc(OC)cc1)OCO2 [M]
Survival, Female: 88.7%
--
molecule: CC(c1ccccc1)c1cc(C(C)(C)C)cc(C(C)(C)C)c1O (stereo not drawn) [A, 4,6-Di-t-butyl-2-α-methylbenzylphenol]
Survival, Female: 68.0%
--
molecule: C=CCc1cc2c(cc1Cc1ccc(OC)cc1)OCO2 [CC]
Survival, Female: 92.7%
--
molecule: COc1ccc(Cc2cc(C(C)(C)C)cc(C(C)(C)C)c2O)cc1 [C, 4,6-Di-t-butyl-2-(4-methoxybenzyl)phenol]
Survival, Female: 66.0%
--
molecule: CC(C)(C)c1cc(Cc2ccccc2)c(O)c(C(C)(C)C)c1 [D, 2,4-Di-t-butyl-6-benzylphenol]
Survival, Female: 88.7%

----------
The following compounds are shown together with reported Mortality, parent generation values.
System: flies (family Muscidae)
Assay: Oviposition inhibition tests (treated fly food; Examples 6-9)
Type: in vivo
Settings: 0.25% in food

compound: CC(c1ccccc1)c1cc(C(C)(C)C)cc(C(C)(C)C)c1O (centres unmarked)
testedSystem: flies (family Muscidae)
unitName: %
Mortality, parent generation: 0

compound: CCOc1ccc(Cc2ccc3c(c2)OCO3)cc1C
testedSystem: flies (family Muscidae)
unitName: %
Mortality, parent generation: 0

compound: COc1ccc(Cc2ccc3c(c2)OCO3)cc1C
testedSystem: flies (family Muscidae)
unitName: %
Mortality, parent generation: 80

compound: COc1ccc(Cc2cc(C(C)(C)C)cc(C(C)(C)C)c2O)cc1
testedSystem: flies (family Muscidae)
unitName: %
Mortality, parent generation: 0

compound: COc1cc2c(cc1C(C)c1ccccc1)OCO2 (centres unmarked)
testedSystem: flies (family Muscidae)
unitName: %
Mortality, parent generation: 60

----------
Assay: Oral toxicity in mice
Details: mouse, in vivo; oral, mice; read-out: Estimated LD50
Each entry below carries its recorded LD50.
endpointLabel: LD50 (mg/kg)

compound: CC(c1ccccc1)c1cc(C(C)(C)C)cc(C(C)(C)C)c1O (stereo not drawn) [A, 4,6-Di-t-butyl-2-α-methylbenzylphenol]
valueMeasured: 2510
//
compound: COc1ccc(C(C)c2cc(C(C)(C)C)cc(C(C)(C)C)c2O)cc1 (stereo not drawn) [B]
valueMeasured: 3550
//
compound: CC(C)(C)c1cc(Cc2ccccc2)c(O)c(C(C)(C)C)c1 [D, 2,4-Di-t-butyl-6-benzylphenol]
valueMeasured: 3430

----------
System: Salmonella tester strains TA-100, TA-98, TA-1537
Assay: Ames' Salmonella/microsome mutagenicity procedure
Settings: TA-100, TA-98, TA-1537; without or with metabolic activation
Procedure: The mutagenic activity of D, A, B, M, N, and CC were tested by the standard Ames' Salmonella/microsome procedure, which is reported to show better than 90% correlation with development of mammalian cancers (Ames et al., Mutation Research, Vol. 31, p. 347, 1975; McCann et al., Proc. Nat. Acad. Sci., Vol. 72, p. 5135, 1975). Tester strains TA-100, TA-98, TA-1537 and the plate test method were used, employing concentrations of 10, 100, 1000, and 10,000 of compound per plate. […]

compound: C=CCc1cc2c(cc1Cc1ccc(OC)cc1)OCO2 [CC]
testedSystem: Salmonella tester strains TA-100, TA-98, TA-1537
mutagenic activity: non-mutagenic

compound: CCCOc1cc2c(cc1Cc1ccc(OC)cc1)OCO2 [N]
testedSystem: Salmonella tester strains TA-100, TA-98, TA-1537
mutagenic activity: non-mutagenic

compound: CC(c1ccccc1)c1cc(C(C)(C)C)cc(C(C)(C)C)c1O (stereo not drawn) [A, 4,6-Di-t-butyl-2-α-methylbenzylphenol]
testedSystem: Salmonella tester strains TA-100, TA-98, TA-1537
mutagenic activity: non-mutagenic

compound: COc1ccc(C(C)c2cc(C(C)(C)C)cc(C(C)(C)C)c2O)cc1 (stereo not shown) [B]
testedSystem: Salmonella tester strains TA-100, TA-98, TA-1537
mutagenic activity: non-mutagenic

----------
Tested on: flies (family Muscidae)
Assay: Oviposition inhibition tests (treated fly food; Examples 6-9)
Assay type: in vivo
Details: 0.25% in food
endpointLabel: Mortality, parent generation (%)

molecule: CC(C)(C)c1cc(Cc2ccccc2)c(O)c(C(C)(C)C)c1 [D, 2,4-Di-t-butyl-6-benzylphenol]
testedSystem: flies (family Muscidae)
endpointLabel: Mortality, parent generation
unitName: %
valueMeasured: 0
--
molecule: CCCCCOc1cc2c(cc1Cc1ccc(OC)cc1)OCO2 [R]
testedSystem: flies (family Muscidae)
endpointLabel: Mortality, parent generation
unitName: %
valueMeasured: 0
--
molecule: CCCOc1cc2c(cc1Cc1ccc(OC)cc1)OCO2 [N]
testedSystem: flies (family Muscidae)
endpointLabel: Mortality, parent generation
unitName: %
valueMeasured: 75
--
molecule: COc1ccc(Cc2cc3c(cc2OCC(C)C)OCO3)cc1 [Q]
testedSystem: flies (family Muscidae)
endpointLabel: Mortality, parent generation
unitName: %
valueMeasured: 0
--
molecule: C=CCc1cc2c(cc1Cc1ccc(OC)cc1)OCO2 [CC]
testedSystem: flies (family Muscidae)
endpointLabel: Mortality, parent generation
unitName: %
valueMeasured: 50
--
molecule: COc1ccc(C(C)c2cc(C(C)(C)C)cc(C(C)(C)C)c2O)cc1 (stereo not drawn) [B]
testedSystem: flies (family Muscidae)
endpointLabel: Mortality, parent generation
unitName: %
valueMeasured: 0
--
molecule: CCCc1cc2c(cc1Cc1ccc(OC)cc1)OCO2 [DD]
testedSystem: flies (family Muscidae)
endpointLabel: Mortality, parent generation
unitName: %
valueMeasured: 0
--
molecule: CCCCOc1cc2c(cc1Cc1ccc(OC)cc1)OCO2 [P]
testedSystem: flies (family Muscidae)
endpointLabel: Mortality, parent generation
unitName: %
valueMeasured: 0
--
molecule: CC(c1ccccc1)c1cc(C(C)(C)C)c(O)c(C(C)(C)C)c1 (stereo not drawn) [E, 2,6-Di-t-butyl-4-(α-methylbenzyl)phenol]
testedSystem: flies (family Muscidae)
endpointLabel: Mortality, parent generation
unitName: %
valueMeasured: 0
